Tested on: Monocotyledonous and dicotyledonous weed
assay summary: Post-emergence test experiment, weed control effect (Table 2)
Assay type: in vivo
Set-up: key: Level 10: completely dead; Level 9: above 90% growth inhibition rate; Level 8: above 80% growth inhibition rate; Level 7: above 70% growth inhibition rate; Level 6: above 60% growth inhibition rate; Level 5: above 50% growth inhibition rate; Level 4: above 30% growth inhibition rate; Level 3: above 20% growth inhibition rate; Level 2: above 10% growth inhibition rate; Level 1: above 1-10% growth inhibition rate; Level 0: no effect
test settings: 30 g/ha, 3 weeks after spraying, greenhouse
Assignment: determine reported weed control effect, Digitaria sanguinalis (level) for the given compounds.
Please respond with just the number, no unit label.

Problem: Form entry - test system: Monocotyledonous and dicotyledonous weed; read-out: weed control effect, Digitaria sanguinalis (level); compound: Cc1nn(C)cc1C(=O)Oc1c(C(=O)c2ccc(S(C)(=O)=O)c(COCC(F)F)c2Cl)c(C)nn1C [Compound 25]
Solution: 10

Problem: Lookup CCc1nn(C)c(OC(=O)c2cn(C)nc2C)c1C(=O)c1ccc(S(C)(=O)=O)c(COCC(F)(F)F)c1Cl [Compound 32]
Solution: 10

* * *

Assignment: determine reported effect on crop, corn (level) for the given compounds.
System: main crop (wheat, corn, rice, soybean, cotton, oilseed, millet and sorghum)
assay summary: Post-emergence test experiment, main crops (Table 2)
Type: in vivo
Design: key: Level 10: completely dead; Level 9: above 90% growth inhibition rate; Level 8: above 80% growth inhibition rate; Level 7: above 70% growth inhibition rate; Level 6: above 60% growth inhibition rate; Level 5: above 50% growth inhibition rate; Level 4: above 30% growth inhibition rate; Level 3: above 20% growth inhibition rate; Level 2: above 10% growth inhibition rate; Level 1: above 1-10% growth inhibition rate; Level 0: no effect
test settings: 30 g/ha, 3 weeks after spraying, greenhouse
Method: Post-emergence test experiment: Monocotyledonous and dicotyledonous weed seeds and main crop seeds (i.e. wheat, corn, rice, soybean, cotton, oilseed, millet and sorghum.) were put into a plastic pot loaded with soil. Then covered with 0.5-2 cm soil, the seeds were allowed to grow in good greenhouse environment. The test plants were treated at 2-3 leaf stage 2-3 weeks after sowing. […]
Please respond with just the number, no unit label.

Problem: Form entry - test system: main crop (wheat, corn, rice, soybean, cotton, oilseed, millet and sorghum); read-out: effect on crop, corn (level); compound: CCOCCOCc1c(S(C)(=O)=O)ccc(C(=O)c2c(C3CC3)nn(C)c2OC(=O)c2cnn(C)c2)c1Cl
Solution: 0

Problem: Lookup CCOCCOCc1c(S(C)(=O)=O)ccc(C(=O)c2cnn(C)c2OC(=O)c2cnn(C)c2)c1Cl
Solution: 0

Problem: Lookup C#CCOCc1c(S(C)(=O)=O)ccc(C(=O)c2c(C)nn(C)c2OC(=O)c2cnn(C)c2)c1Cl
Solution: 0

Problem: Lookup Cc1nn(C)cc1C(=O)Oc1c(C(=O)c2ccc(S(C)(=O)=O)c(COCC(F)(F)F)c2Cl)cnn1C
Solution: 0

Problem: Lookup CCOCc1c(S(C)(=O)=O)ccc(C(=O)c2c(C)nn(C)c2OC(=O)c2cn(C)nc2C)c1Cl
Solution: 0

* * *

Test system: main crop (wheat, corn, rice, soybean, cotton, oilseed, millet and sorghum)
assay summary: Post-emergence test experiment, main crops (Table 2)
Assay type: in vivo
Parameters: key: Level 10: completely dead; Level 9: above 90% growth inhibition rate; Level 8: above 80% growth inhibition rate; Level 7: above 70% growth inhibition rate; Level 6: above 60% growth inhibition rate; Level 5: above 50% growth inhibition rate; Level 4: above 30% growth inhibition rate; Level 3: above 20% growth inhibition rate; Level 2: above 10% growth inhibition rate; Level 1: above 1-10% growth inhibition rate; Level 0: no effect
test settings: 120 g/ha, 3 weeks after spraying, greenhouse
Procedure: Post-emergence test experiment: Monocotyledonous and dicotyledonous weed seeds and main crop seeds (i.e. wheat, corn, rice, soybean, cotton, oilseed, millet and sorghum.) were put into a plastic pot loaded with soil. Then covered with 0.5-2 cm soil, the seeds were allowed to grow in good greenhouse environment. The test plants were treated at 2-3 leaf stage 2-3 weeks after sowing. […]
Assignment: determine reported effect on crop, corn (level) for the given compounds.
Please respond with just the number, no unit label.

Problem: Value lookup for effect on crop, corn (level); key = Cc1cc(C)n(Cc2c(S(C)(=O)=O)ccc(C(=O)c3c(C4CC4)nn(C)c3OC(=O)c3cnn(C)c3)c2Cl)n1
Solution: 0

Problem: Lookup CCc1nn(C)c(OC(=O)c2cn(C)nc2C)c1C(=O)c1ccc(S(C)(=O)=O)c(Cn2nc(C)cc2C)c1Cl
Solution: 0

Problem: Lookup Cn1cc(C(=O)Oc2c(C(=O)c3ccc(S(C)(=O)=O)c(Cn4cc(Cl)cn4)c3Cl)c(C3CC3)nn2C)cn1
Solution: 0

Problem: Lookup Cc1ccn(Cc2c(S(C)(=O)=O)ccc(C(=O)c3c(C)nn(C)c3OC(=O)c3cn(C)nc3C)c2Cl)n1
Solution: 0

Source: patent US10556888B2
